biological target: human GABA A receptor α5β3γ2 (Homo sapiens (Human), UniProt P18507+P31644); assay: [3H]flumazenil competition binding assay, human GABA A α5β3γ2 receptors expressed in HEK293 cells; conditions: human receptor; displacement of [3H]flumazenil (0.5 nM); means of two determinations; read-out: hKi GABAAa5
Each entry below carries its reported log10(Ki).
Use the decimal logarithm of Ki (nM).

Cc1onc(-c2ccccc2)c1COc1ccc(C(=O)NC2COCc3ccccc32)cn1 (stereo not drawn)    1.83

The recorded log10(Ki) for entry O=C(NC1CC1)c1ccc(OCc2c(-c3ccccc3)noc2C(F)(F)F)nc1 equals 1.38

For this compound ( Cc1cccc(OCc2c(-c3ccccc3)noc2C)n1 ), measured log10(Ki) is 0.49

* * *

biological target: human GABA A receptor α5β3γ2 (Homo sapiens (Human), UniProt P18507+P31644); assay: [3H]flumazenil competition binding assay, human GABA A α5β3γ2 receptors expressed in HEK293 cells; details: human receptor; displacement of [3H]flumazenil (0.5 nM); means of two determinations; read-out: hKi GABAAa5
Attribute: pKi
Scale explanation: pKi corresponds to minus log10 of a concentration expressed in moles per litre.

Some entries whose results are on file:
Cc1onc(-c2ccccc2)c1COc1ccc(C(=O)N2CCCCC2)cn1 [Example 51]    7.29
CCC(CC)CNC(=O)c1ccc(OCc2c(-c3ccccc3)noc2C)nc1 [Example 17]    8.11
Cc1onc(-c2ccc(F)cc2)c1CNc1ccc(C(=O)N2CCS(=O)(=O)CC2)cn1 [Example 178]    7.53
Cc1onc(-c2cccc(F)c2)c1COc1ccc(C(=O)NC2CCOCC2)cn1 [Example 93]    8.77

Next item in the queue.
// sample Cc1onc(-c2cccc(Cl)c2)c1COc1ccc(C(=O)NC2CC2)cn1 [Example 100] , its pKi was 8.12

* * *

target: human GABA A receptor α5β3γ2 (Homo sapiens (Human), UniProt P18507+P31644); assay: [3H]flumazenil competition binding assay, human GABA A α5β3γ2 receptors expressed in HEK293 cells; details: human receptor; displacement of [3H]flumazenil (0.5 nM); means of two determinations; read-out: hKi GABAAa5
pKi: −log10 of the molar value.
Tick true if pKi is 8 or greater. Tick false if pKi is less than 8.

Cc1onc(-c2ccccc2)c1COc1ccc(C(=O)NCCC(C)O)cn1 (centres unmarked)    true
Cc1onc(-c2ccccc2)c1CNc1ccccn1    false

API: the following record is the query input.
input: Is pKi at least 8? Consider Cc1onc(-c2ccccc2)c1COc1ccc(C(=O)NCc2ccccn2)cn1
output: true

* * *

Each entry below carries its recorded Ki.
molecular target: human GABA A receptor α5β3γ2 (Homo sapiens (Human), UniProt P18507+P31644); experiment: [3H]flumazenil competition binding assay, human GABA A α5β3γ2 receptors expressed in HEK293 cells; conditions: human receptor; displacement of [3H]flumazenil (0.5 nM); means of two determinations; read-out: hKi GABAAa5
The figure you give is taken to be in nM; do not add the unit.

Cc1onc(-c2ccc(F)cc2)c1COc1ccc(C(=O)N2CCSCC2)cn1 [Example 111]    10.4
O=C(NCCO)c1ccc(OCc2conc2-c2ccccn2)nc1 [Example 363]    19.9
COC(=O)c1ccc(OCc2c(-c3cccnc3)noc2C)nc1 [Example 154]    53.2
Cc1onc(-c2ccccc2)c1COc1ccc(C(=O)NCC2CC2)cn1 [Example 16]    3.9
CCCCS(=O)(=O)NC(=O)c1ccc(OCc2c(-c3ccccc3)noc2C)nc1 [Example 233]    32.2
Cc1onc(-c2ccccc2)c1COc1ccc(C(=O)NCC(=O)OC(C)(C)C)cn1 [Example 24]    35

Per the records, this compound ( Cc1onc(-c2ccccc2)c1COc1ccc(C#N)cn1 [Example 5] ) has Ki equal to 13.1

Lookup result for Cc1onc(-c2ccc(Cl)cc2)c1COc1ccc(C(=O)N[C@@H](C)C(F)(F)F)cn1 [Example 258] ; measured Ki: 1.3

// recorded Ki for Cc1onc(-c2ccccc2)c1COc1ccc(C(=O)N2CCOCC2(C)C)cn1 [Example 71] : 80.8

* * *

biological target: human GABA A receptor α5β3γ2 (Homo sapiens (Human), UniProt P18507+P31644); assay: [3H]flumazenil competition binding assay, human GABA A α5β3γ2 receptors expressed in HEK293 cells; details: human receptor; displacement of [3H]flumazenil (0.5 nM); means of two determinations; read-out: hKi GABAAa5
The entries below come with measured Ki values attached.
Number in nM, nothing else.

Look over these answered cases.
COC(=O)c1ccc(OCc2c(-c3ccccn3)noc2C)nc1    3.8
O=C(NCC1CC1)c1ccc(OCc2c(-c3ccccc3)noc2C(F)(F)F)nc1    28.3
Cc1onc(-c2ccc(F)cn2)c1COc1ccc(C(=O)NCC(F)(F)F)cn1    0.3
Cc1onc(-c2cccc(F)c2F)c1COc1ccc(C(=O)NC2CCOCC2)cn1    5.2
O=C(NC1CCOCC1)c1ccc(OCc2c(-c3ccccc3)noc2C(F)(F)F)nc1    22.1

Per the records, this molecule ( Cc1onc(-c2ccccc2)c1COc1ccc(C(=O)N[C@H]2CCC[C@@H]2O)cn1 (single isomer, unassigned) ) has Ki equal to 2

molecule Cc1onc(-c2ccccc2)c1COc1ccc(C(=O)N[C@H]2CCC[C@H]2O)cn1 (single isomer, unassigned) , Ki observed: 2.7

So, CC(=O)Nc1ccc(OCc2c(-c3ccccc3)noc2C)nc1 ? Its Ki was 9.4

* * *

biological target: human GABA A receptor α5β3γ2 (Homo sapiens (Human), UniProt P18507+P31644); assay: [3H]flumazenil competition binding assay, human GABA A α5β3γ2 receptors expressed in HEK293 cells; conditions: human receptor; displacement of [3H]flumazenil (0.5 nM); means of two determinations; read-out: hKi GABAAa5
One threshold, 20 nM, splits the recorded Ki values: lower ones are y, equal or higher ones are n.

Cc1onc(-c2cccc(F)c2)c1CNc1ccc(C(=O)NCC(F)(F)F)cn1 [Example 168]    y
CNC(=O)c1ccc(OCc2c(-c3ccccc3)noc2C)nc1 [Example 8]    y
CCNC(=O)c1ccc(OCc2c(-c3ccccn3)noc2C)nc1 [Example 280]    y

input: For Cc1onc(-c2ccccc2)c1COc1cc(OCc2ccccc2)ccn1 [Example 56] , is the recorded Ki below the cut-off of 20 nM?
output: n

input: A record lists Cc1onc(-c2ccc(Cl)cn2)c1COc1ccc(C(=O)NCCO)cn1 [Example 311] . Is its Ki below 20 nM?
output: y

input: A record lists Cc1onc(-c2cccnc2)c1COc1ccc(C(=O)NC(C)C)cn1 [Example 158] . Is its Ki below 20 nM?
output: n

input: Is Ki strictly under 20 nM for the entry Cc1onc(-c2ccccc2)c1COc1ccc(C(=O)NCCN2CCNC2=O)cn1 [Example 214] ?
output: y

input: Item Cc1onc(-c2ccc(F)c(F)c2)c1COc1ccc(C(=O)NC2CCOCC2)cn1 [Example 127] : Ki beneath 20 nM, strictly?
output: y

* * *

molecular target: human GABA A receptor α5β3γ2 (Homo sapiens (Human), UniProt P18507+P31644); test: [3H]flumazenil competition binding assay, human GABA A α5β3γ2 receptors expressed in HEK293 cells; conditions: human receptor; displacement of [3H]flumazenil (0.5 nM); means of two determinations; read-out: hKi GABAAa5
Output Criterion met for records whose Ki is lower than 7 nM, Criterion not met for records at or above 7 nM.

Cc1onc(-c2ccccc2)c1COc1ccc(C(=O)NC2CCCC2)cn1 [Example 29]    Criterion met
Cc1onc(-c2ccc(Cl)cc2F)c1COc1ccc(C(=O)NC(C)C)cn1 [Example 270]    Criterion met
Cc1onc(-c2ccc(F)cc2)c1COc1ccc(C(=O)NCC(F)(F)F)cn1 [Example 105]    Criterion met
CC(C)NC(=O)c1ccc(OCc2c(-c3ccccc3)noc2C(F)(F)F)nc1 [Example 133]    Criterion not met

input: Is the reported Ki for Cc1onc(-c2ccccc2)c1COc1ccc(C(=O)NC2CCCC2O)cn1 (stereo not drawn) [Example 200] strictly below 7 nM?
output: Criterion met

input: Bench note: check whether Cc1onc(-c2ccccc2)c1COc1ccc(C(=O)NCC2(O)CC2)cn1 [Example 194] shows Ki below 7 nM
output: Criterion met

input: Regarding Cc1onc(-c2ccc(Cl)cn2)c1COc1ccc(C(=O)N2CCOCC2)cn1 [Example 309] , kindly confirm whether its Ki is beneath 7 nM.
output: Criterion met

input: Ki under 7 nM? Item: COC(=O)c1ccc(OCc2c(-c3ccc(Cl)cn3)noc2C)nc1 [Example 300]
output: Criterion met

input: # TODO verify Ki < 7 nM strictly for this molecule: Cc1onc(-c2ccccc2)c1COc1ccc(C2(O)COC2)cn1 [Example 74]
output: Criterion not met

input: API: query returns whether the molecule falls strictly under 7 nM in Ki. Query: Cc1onc(-c2ccc(F)cc2F)c1COc1ccc(C(=O)NC(C)C)cn1 [Example 263]
output: Criterion met

input: A record lists Cc1onc(-c2ccccc2)c1COc1cc(C(F)(F)F)c(C(=O)NC(C)C)cn1 [Example 62] . Is its Ki below 7 nM?
output: Criterion not met

input: is_below(Ki, 7 nM) for Cc1onc(-c2ccccc2)c1COc1ccc(C(=O)NCC2CCOC2)cn1 (stereo not drawn) [Example 77] ?
output: Criterion met
